The origin of these recorded values is paper PMC7826789.

# Percent Control per record follows
# Tested on: PDGFRA
# CONDITION NOTES: Compound Concentration (nM):1000;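 note: KINOMEscan scanMAX binding as percent activity remaining versus control; lower means stronger binding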
ENDPOINT NAME: Percent Control (%)

compound="C[C@@H](Oc1cc(-n2cnc3ccc(OC4CCN(C)CC4)cc32)sc1C(N)=O)c1ccccc1Cl [GSK579289A]" result_value=54
compound=O=C(Nc1n[nH]c2nc(-c3ccc(O)cc3)c(Br)cc12)C1CC1 result_value=29
compound=CCn1c(-c2nonc2N)nc2c(C#CC(C)(C)O)nc(OCCNC)cc21.Cl result_value=100
compound="COc1ccc2c(-c3ccnc(Nc4cccc(OC(F)(F)F)c4)n3)cnn2n1 [GW810372X]" result_value=87
compound="CCS(=O)(=O)c1ccc(OC)c(Nc2ncc(-c3cccc(OC)c3)o2)c1 [GW580509X]" result_value=69
compound="CN(C)c1cc2c(Nc3ccc4c(cnn4Cc4ccccc4)c3)ncnc2cn1 [GW282974X]" result_value=100
compound="COC(=O)Nc1nc2ccc(Oc3ccc(NC(=O)Nc4cc(C(F)(F)F)ccc4F)cc3)cc2s1.Cl [GW693917A]" result_value=11
compound="O=C1Nc2ccc(C(=O)c3ccco3)cc2C1=Cc1cc(Cl)c(O)c(Cl)c1 [GW406108X]" result_value=79
compound="NS(=O)(=O)c1ccc(N/N=C2\\C(=O)Nc3ccc(C(=O)NCc4ccncc4)cc32)cc1 [GW300657X]" result_value=27
compound="Cl.O=C(Nc1ccc(Oc2ccc3[nH]c(NC(=O)c4ccco4)nc3c2)cc1)Nc1cc(C(F)(F)F)ccc1F [GW683134A]" result_value=11
compound="COc1cc(C=NNc2ncnc3c2cnn3-c2ccccc2)ccc1O [GW513184X]" result_value=63
compound="Cl.O=C(O[C@H]1CN[C@H](C#Cc2cc3ncnc(Nc4ccc5c(cnn5Cc5ccccc5)c4)c3s2)C1)N1CCOCC1 [GSK200398A]" result_value=83
compound=CCc1ccc(Oc2nccc(-c3c(-c4ccc(F)cc4)ncn3C3CCNCC3)n2)cc1 result_value=100
compound="CN1CCN(C(=O)c2ccc(NC(=O)Nc3ccc(N(C)c4ccnc(Nc5ccc(CS(C)(=O)=O)cc5)n4)cc3)cc2)CC1.Cl [GW830263A]" result_value=2
compound="Cc1cc(O)cc(C)c1/C=C/c1cncc(C(N)=O)c1 [GW435821X]" result_value=18
compound="Cl.c1ccc(Cc2nc3ccc(Nc4ncnc5ccccc45)cc3[nH]2)cc1 [GR269666A]" result_value=49
compound="COc1cccc(-n2ncc3c(N/N=C/c4ccncc4)ncnc32)c1 [GW784752X]" result_value=36
compound="CN(C)CCNC(=O)Nc1ccc(N(C)c2ccnc(Nc3ccc(CS(C)(=O)=O)cc3)n2)cc1.Cl [GW830900A]" result_value=2
compound="COc1cc2ncnc(Nc3ccc4c(cnn4Cc4ccccc4)c3)c2cc1OC.Cl [GW282449A]" result_value=83

----------
# System: MST1R
# CONDITION NOTES: Compound Concentration (nM):1000
# Percent Control per record follows
ENDPOINT NAME: Percent Control (%)

molecule="COc1ccccc1-c1cc(/C=C2\\C(=O)Nc3ncc(Br)cc32)cc(Br)c1O [GW442130X]" tested_system=MST1R result_value=100
molecule="C/C(Nc1ccc(S(N)(=O)=O)cc1)=C1/C(=O)Nc2ccccc21 [GW335962X]" tested_system=MST1R result_value=100
molecule=COc1ccc2cc(-c3c(-c4ccncc4)nc(-c4ccc(S(C)(=O)=O)cc4C)n3C)ccc2c1 tested_system=MST1R result_value=85
molecule="Nc1ncnc2occ(-c3ccc(NC(=O)Nc4cc(C(F)(F)F)ccc4F)cc3)c12 [GW770249X]" tested_system=MST1R result_value=100
molecule="COC(=O)Nc1nc2ccc(Oc3ccc(NC(=O)Nc4cc(C(F)(F)F)ccc4F)cc3)cc2s1.Cl [GW693917A]" tested_system=MST1R result_value=100
molecule="COc1cc(N2CCN(C(C)C)CC2)ccc1Nc1nc(Nc2ccc(F)cc2C(=O)NC[C@@H](O)CO)c2cc[nH]c2n1 [GSK1392956A]" tested_system=MST1R result_value=100
molecule="NS(=O)(=O)c1ccc(N/N=C2\\C(=O)Nc3ccc(C(=O)NCc4ccncc4)cc32)cc1 [GW300657X]" tested_system=MST1R result_value=100
molecule="NS(=O)(=O)c1ccc(Nc2ncc(-c3ccccc3)o2)cc1 [GW572399X]" tested_system=MST1R result_value=100

----------
# Percent Control per record follows
# Test system: PFPK5(P.falciparum)
# Construct: gene MAL13P1.279
# CONDITION NOTES: Compound Concentration (nM):1000
ENDPOINT NAME: Percent Control (%)

molecule=CCc1ccc(Oc2nccc(-c3c(-c4ccc(F)cc4)ncn3C3CCNCC3)n2)cc1 tested_system=PFPK5(P.falciparum) result_value=87
molecule="CC1=C(C(=O)Nc2ccc3[nH]ncc3c2)C(c2ccc(Cl)c(Cl)c2)CC(=O)N1 (stereo not shown) [GSK299115A]" tested_system=PFPK5(P.falciparum) result_value=71
molecule=COc1cc(C)c(N(C)C(=O)CN(C)C)cc1Nc1nc(Nc2cccc(F)c2C(N)=O)c2cc[nH]c2n1 tested_system=PFPK5(P.falciparum) result_value=76
molecule=NS(=O)(=O)c1ccc(N/N=C2\C(=O)Nc3ccc(-c4cnco4)cc32)cc1 tested_system=PFPK5(P.falciparum) result_value=95
molecule="CC(C)COC(=O)c1ccc2c(c1)/C(=C/Nc1ccc(S(N)(=O)=O)cc1)C(=O)N2 [GW416981X]" tested_system=PFPK5(P.falciparum) result_value=100
molecule="CCS(=O)(=O)c1ccc(OC)c(Nc2ncc(-c3cccc(F)c3)o2)c1 [GW621970X]" tested_system=PFPK5(P.falciparum) result_value=100
molecule="Cl.O=S1CCN(Cc2ccc(-c3ccc4ncnc(Nc5ccc(OCc6ccccc6)c(F)c5)c4c3)o2)CC1 [GW576924A]" tested_system=PFPK5(P.falciparum) result_value=100

----------
# Percent Control per record follows
# Tested on: ABL1(Q252H)-phosphorylated
# CONDITION NOTES: Compound Concentration (nM):1000
ENDPOINT NAME: Percent Control (%)

compound="Nc1ncnc2occ(-c3ccc(NC(=O)Nc4cc(C(F)(F)F)ccc4F)cc3)c12 [GW770249X]" endpoint_name="Percent Control" result_value=92
compound="Cl.O=C(Nc1ccc(Oc2ccc3[nH]c(NC(=O)c4ccco4)nc3c2)cc1)Nc1cc(C(F)(F)F)ccc1F [GW683134A]" endpoint_name="Percent Control" result_value=58
compound="COc1cc(N2CCN(C(C)C)CC2)ccc1Nc1nc(Nc2ccc(F)cc2C(=O)NC[C@@H](O)CO)c2cc[nH]c2n1 [GSK1392956A]" endpoint_name="Percent Control" result_value=100
compound="NS(=O)(=O)c1ccc(N/N=C2\\C(=O)Nc3ccc(C(=O)NCCc4c[nH]cn4)cc32)cc1 [GW300660X]" endpoint_name="Percent Control" result_value=100
compound="CN1CCN(C(=O)c2ccc(NC(=O)Nc3ccc(N(C)c4ccnc(Nc5ccc(CS(C)(=O)=O)cc5)n4)cc3)cc2)CC1.Cl [GW830263A]" endpoint_name="Percent Control" result_value=30
compound=COc1ccc2cc(-c3c(-c4ccncc4)nc(-c4ccc(S(C)(=O)=O)cc4C)n3C)ccc2c1 endpoint_name="Percent Control" result_value=83
compound="CN(C)CCNC(=O)Nc1ccc(N(C)c2ccnc(Nc3ccc(CS(C)(=O)=O)cc3)n2)cc1.Cl [GW830900A]" endpoint_name="Percent Control" result_value=58
compound="Cl.c1ccc(Cc2nc3ccc(Nc4ncnc5ccccc45)cc3[nH]2)cc1 [GR269666A]" endpoint_name="Percent Control" result_value=100
compound="Cc1cc(O)cc(C)c1/C=C/c1cncc(C(N)=O)c1 [GW435821X]" endpoint_name="Percent Control" result_value=13
compound="COc1ccc2c(-c3ccnc(Nc4cccc(OC(F)(F)F)c4)n3)cnn2n1 [GW810372X]" endpoint_name="Percent Control" result_value=100
compound="CCS(=O)(=O)c1ccc(OC)c(Nc2ncc(-c3cccc(F)c3)o2)c1 [GW621970X]" endpoint_name="Percent Control" result_value=4.9
compound="COC(=O)Nc1nc2ccc(Oc3ccc(NC(=O)Nc4cc(C(F)(F)F)ccc4F)cc3)cc2s1.Cl [GW693917A]" endpoint_name="Percent Control" result_value=32
compound="COc1cc(C=NNc2ncnc3c2cnn3-c2ccccc2)ccc1O [GW513184X]" endpoint_name="Percent Control" result_value=13
compound=COc1cc(C)c(N(C)C(=O)CN(C)C)cc1Nc1nc(Nc2cccc(F)c2C(N)=O)c2cc[nH]c2n1 endpoint_name="Percent Control" result_value=95
compound="CN(C)c1cc2c(Nc3ccc4c(cnn4Cc4ccccc4)c3)ncnc2cn1 [GW282974X]" endpoint_name="Percent Control" result_value=66
compound="CCS(=O)(=O)c1ccc(OC)c(Nc2ncc(-c3cccc(OC)c3)o2)c1 [GW580509X]" endpoint_name="Percent Control" result_value=3.2
